Biological target: Bromodomain-containing protein 2 (Homo sapiens) (UniProt P25440)
Sequence (P25440 whole entry, looked up): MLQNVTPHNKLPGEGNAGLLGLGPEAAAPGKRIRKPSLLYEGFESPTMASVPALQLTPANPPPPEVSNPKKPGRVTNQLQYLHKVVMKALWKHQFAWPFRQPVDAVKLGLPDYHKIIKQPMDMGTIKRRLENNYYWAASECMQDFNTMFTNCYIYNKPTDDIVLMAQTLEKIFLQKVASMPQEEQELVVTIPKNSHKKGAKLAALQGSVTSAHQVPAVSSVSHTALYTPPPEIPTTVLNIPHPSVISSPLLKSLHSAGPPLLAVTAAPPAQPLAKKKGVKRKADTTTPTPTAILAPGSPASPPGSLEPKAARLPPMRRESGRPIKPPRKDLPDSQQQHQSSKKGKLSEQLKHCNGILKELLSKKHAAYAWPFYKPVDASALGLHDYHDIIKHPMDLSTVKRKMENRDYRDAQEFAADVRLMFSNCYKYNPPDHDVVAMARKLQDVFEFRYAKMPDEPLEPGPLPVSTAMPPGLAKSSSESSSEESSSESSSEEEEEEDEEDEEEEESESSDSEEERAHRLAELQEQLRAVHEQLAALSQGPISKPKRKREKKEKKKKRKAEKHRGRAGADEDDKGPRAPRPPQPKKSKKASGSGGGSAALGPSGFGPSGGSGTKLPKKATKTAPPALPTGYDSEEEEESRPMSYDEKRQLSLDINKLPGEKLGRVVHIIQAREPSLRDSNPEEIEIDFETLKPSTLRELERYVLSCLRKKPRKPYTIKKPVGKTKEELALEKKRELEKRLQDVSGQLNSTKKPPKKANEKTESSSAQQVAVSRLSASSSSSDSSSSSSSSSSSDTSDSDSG
Assay: Binding affinity to BRD2(1) (unknown origin) assessed as increase in protein melting temperature at 50 umol by real-time PCR system based thermal shift assay
measured quantity: ΔTm (°C)

1. Cc1ccc(-c2csc(=O)[nH]2)cc1S(=O)(=O)NC1CCCC1 | 3.47
2. Cc1c(Br)cc(-c2csc(=O)[nH]2)cc1S(=O)(=O)NC1CCCC1 | 5.92
3. O=C(Nc1cc(-c2csc(=O)[nH]2)cc(S(=O)(=O)NC2CCCC2)c1)C1CC1 | 5.63
4. Nc1ccc(-c2csc(=O)[nH]2)cc1S(=O)(=O)NC1CCCC1 | 4.06
5. COc1ccc(-c2csc(=O)[nH]2)cc1S(=O)(=O)NC1CCCC1 | 2.82
6. Cc1c(N)cc(-c2csc(=O)[nH]2)cc1S(=O)(=O)NC1CCCC1 | 5.04

----------
Biological target: CYP1A2 (Homo sapiens)
Sequence (P05177 whole entry): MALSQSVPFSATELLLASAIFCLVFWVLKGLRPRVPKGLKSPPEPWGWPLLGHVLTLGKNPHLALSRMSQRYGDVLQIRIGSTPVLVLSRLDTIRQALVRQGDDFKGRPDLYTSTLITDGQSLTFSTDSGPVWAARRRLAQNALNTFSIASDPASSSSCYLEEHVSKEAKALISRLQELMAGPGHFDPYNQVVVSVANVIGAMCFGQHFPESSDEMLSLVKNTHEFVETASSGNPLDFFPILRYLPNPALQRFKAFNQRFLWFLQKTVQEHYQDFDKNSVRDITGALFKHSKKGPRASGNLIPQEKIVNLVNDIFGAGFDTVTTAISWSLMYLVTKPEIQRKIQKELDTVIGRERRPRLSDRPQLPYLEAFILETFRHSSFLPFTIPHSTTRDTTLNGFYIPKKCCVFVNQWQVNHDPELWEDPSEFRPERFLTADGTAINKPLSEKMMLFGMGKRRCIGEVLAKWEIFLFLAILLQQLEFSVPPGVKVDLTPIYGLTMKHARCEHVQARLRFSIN
Assay: Inhibition of CYP1A2 in human liver microsomes at 10 uM using phenacetin substrate preincubated for 5 mins before NADPH addition and measured after 20 mins post NADPH addition
Format: ADME
Conditions: probe phenacetin
measured quantity: inhibition at 20 min, 10 µM (%)

1. Cc1c(Br)cc(-c2csc(=O)[nH]2)cc1S(=O)(=O)NC1CCCC1 | 47
2. O=C(Nc1cc(-c2csc(=O)[nH]2)cc(S(=O)(=O)NC2CCCC2)c1)c1cccs1 | 45
3. Nc1ccc(-c2csc(=O)[nH]2)cc1S(=O)(=O)NC1CCCC1 | 22
4. COc1ccc(-c2csc(=O)[nH]2)cc1S(=O)(=O)NC1CCCC1 | 3
5. O=C(Nc1cc(-c2csc(=O)[nH]2)cc(S(=O)(=O)NC2CCCC2)c1)C1CC1 | 29
6. CNc1cc(-c2csc(=O)[nH]2)cc(S(=O)(=O)NC2CCCC2)c1C | 37
7. COc1cc2c(cc1-c1c(C)noc1C)ncc1[nH]c(=O)n([C@H](C)c3ccccn3)c12 | 18
8. Cc1c(N)cc(-c2csc(=O)[nH]2)cc1S(=O)(=O)NC1CCCC1 | 17
9. Cc1ccc(-c2csc(=O)[nH]2)cc1S(=O)(=O)NC1CCCC1 | 52
10. Cc1sc2c(c1C)C(c1ccc(Cl)cc1)=N[C@@H](CC(=O)OC(C)(C)C)c1nnc(C)n1-2 | 2

----------
Target: CYP2D6 (Homo sapiens, UniProt P10635)
Sequence (P10635 whole entry): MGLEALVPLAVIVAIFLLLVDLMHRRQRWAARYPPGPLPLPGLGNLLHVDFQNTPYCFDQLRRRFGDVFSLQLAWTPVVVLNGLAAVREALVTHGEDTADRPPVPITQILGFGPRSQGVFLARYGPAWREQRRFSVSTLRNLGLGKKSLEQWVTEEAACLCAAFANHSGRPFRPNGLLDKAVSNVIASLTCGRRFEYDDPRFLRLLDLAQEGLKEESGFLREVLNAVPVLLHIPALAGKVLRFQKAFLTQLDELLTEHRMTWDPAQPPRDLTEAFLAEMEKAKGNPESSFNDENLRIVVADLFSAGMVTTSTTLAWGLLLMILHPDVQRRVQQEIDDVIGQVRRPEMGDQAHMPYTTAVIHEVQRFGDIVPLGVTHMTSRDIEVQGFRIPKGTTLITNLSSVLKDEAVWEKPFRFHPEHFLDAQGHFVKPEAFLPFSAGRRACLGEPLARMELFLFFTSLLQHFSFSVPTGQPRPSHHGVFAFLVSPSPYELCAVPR
Assay: Inhibition of CYP2D6 in human liver microsomes at 10 uM using dextromethorphan substrate preincubated for 5 mins before NADPH addition and measured after 20 mins post NADPH addition
Assay type: ADME
Settings: liver microsomes, probe dextromethorphan
measured quantity: inhibition at 20 min, 10 µM (%)

1) CNc1cc(-c2csc(=O)[nH]2)cc(S(=O)(=O)NC2CCCC2)c1C | 36
2) Nc1ccc(-c2csc(=O)[nH]2)cc1S(=O)(=O)NC1CCCC1 | 18
3) Cc1c(Br)cc(-c2csc(=O)[nH]2)cc1S(=O)(=O)NC1CCCC1 | 39
4) Cc1ccc(-c2csc(=O)[nH]2)cc1S(=O)(=O)NC1CCCC1 | 27
5) Cc1sc2c(c1C)C(c1ccc(Cl)cc1)=N[C@@H](CC(=O)OC(C)(C)C)c1nnc(C)n1-2 | 2
6) Cc1c(N)cc(-c2csc(=O)[nH]2)cc1S(=O)(=O)NC1CCCC1 | 3
7) O=C(Nc1cc(-c2csc(=O)[nH]2)cc(S(=O)(=O)NC2CCCC2)c1)C1CC1 | 17
8) COc1cc2c(cc1-c1c(C)noc1C)ncc1[nH]c(=O)n([C@H](C)c3ccccn3)c12 | 18
9) O=C(Nc1cc(-c2csc(=O)[nH]2)cc(S(=O)(=O)NC2CCCC2)c1)c1cccs1 | 44
